# Tgt: HERG (Homo sapiens, UniProt Q12809)
# Sequence (Q12809 whole entry): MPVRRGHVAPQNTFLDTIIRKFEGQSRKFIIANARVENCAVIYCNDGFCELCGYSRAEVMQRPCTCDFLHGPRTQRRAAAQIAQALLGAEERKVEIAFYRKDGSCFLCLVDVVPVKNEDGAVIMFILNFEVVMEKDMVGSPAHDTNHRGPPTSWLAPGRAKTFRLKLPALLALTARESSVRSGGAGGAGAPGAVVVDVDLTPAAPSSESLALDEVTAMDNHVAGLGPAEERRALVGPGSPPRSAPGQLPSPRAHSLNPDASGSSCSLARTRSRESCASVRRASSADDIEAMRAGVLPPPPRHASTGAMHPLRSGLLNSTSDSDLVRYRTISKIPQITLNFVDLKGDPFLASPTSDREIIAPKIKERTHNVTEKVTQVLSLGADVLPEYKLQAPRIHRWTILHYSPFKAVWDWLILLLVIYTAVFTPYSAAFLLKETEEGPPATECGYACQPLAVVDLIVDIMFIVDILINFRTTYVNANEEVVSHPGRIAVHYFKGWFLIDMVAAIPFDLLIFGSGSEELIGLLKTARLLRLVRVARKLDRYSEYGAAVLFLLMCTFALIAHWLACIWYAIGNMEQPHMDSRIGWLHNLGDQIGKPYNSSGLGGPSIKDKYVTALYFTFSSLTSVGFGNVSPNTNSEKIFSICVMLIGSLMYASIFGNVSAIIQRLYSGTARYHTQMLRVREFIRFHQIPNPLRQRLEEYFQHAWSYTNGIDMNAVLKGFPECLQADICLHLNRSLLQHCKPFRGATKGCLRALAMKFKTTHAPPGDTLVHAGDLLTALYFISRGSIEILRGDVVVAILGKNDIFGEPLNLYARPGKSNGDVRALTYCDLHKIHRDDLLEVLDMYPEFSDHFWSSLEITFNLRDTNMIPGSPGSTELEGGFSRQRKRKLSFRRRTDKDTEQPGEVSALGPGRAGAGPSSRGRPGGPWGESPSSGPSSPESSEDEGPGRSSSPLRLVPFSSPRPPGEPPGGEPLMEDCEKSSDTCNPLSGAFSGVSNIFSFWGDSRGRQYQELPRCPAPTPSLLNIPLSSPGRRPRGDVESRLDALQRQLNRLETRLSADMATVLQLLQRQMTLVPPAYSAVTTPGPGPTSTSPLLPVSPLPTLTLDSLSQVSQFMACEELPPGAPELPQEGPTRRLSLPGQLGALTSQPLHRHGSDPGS
# Test Summary: HERG Patch Clamp EP
# Conditions: human, HEK cells stably overexpressing HERG
Measured Attribute: inhibition at 10 µM (%)
Write the value in % as a bare number.

Exam item: Reported inhibition at 10 µM for COc1ccc(CCN2C(=O)N(NS(=O)(=O)CCS(C)(=O)=O)CC2c2ccc(C3CC3)cc2)cc1 (stereo not shown) : what is it?
Marked response: 55

Exam item: And the next one, COc1ccc(CCN2C(=O)N(NCc3ccc(C#N)cc3)CC2c2ccc(C)c(C)c2)cc1 (stereo not shown) ?
Marked response: 97

Exam item: Param item: COc1ccc(CCN2C(=O)N(NCc3ccc(F)cc3)CC2c2ccc(C)c(C)c2)cc1 (stereo not shown)
Marked response: 98

Exam item: Okay, and COc1ccc(CCN2C(=O)N(NS(C)(=O)=O)C[C@@H]2c2ccc(OC(F)F)cc2)cc1 ?
Marked response: 55

----------
# Tgt: HERG (Homo sapiens, UniProt Q12809)
# Test Summary: HERG Patch Clamp EP
Task for the reader: assign each of the following molecules its reported pIC50.
Just so you know, pIC50 here is -log10 of the concentration in molar units; reply with that number alone.

Exam item: Which value of pIC50 has been reported for COc1ccc(CCN2C(=O)N(NS(C)(=O)=O)CC2c2ccc(OC)cc2)cc1 (centres unmarked) in the records?
Marked response: 4.63

Exam item: Moving on to the next molecule: COc1ccc(CCN2C(=O)N(NS(=O)(=O)Cc3cccnc3)CC2c2ccc(OC)cc2)cc1 (centres unmarked)
Marked response: 4.90

Exam item: Also COc1ccc(CCN2C(=O)N(NS(C)(=O)=O)C[C@@H]2c2ccc(OC)cc2)cc1 , if possible.
Marked response: 4.27

Exam item: Now consider COc1ccc(CCN2C(=O)N(NS(C)(=O)=O)CC2c2ccc(C3CC3)cc2)cc1 (centres unmarked) .
Marked response: 4.99

Exam item: Entry COc1ccc(CCN2C(=O)N(NS(C)(=O)=O)C[C@H]2c2ccc(OC)cc2)cc1 please
Marked response: 4.46

Exam item: Thanks! And COc1ccc(CCN2C(=O)N(NCc3ccc(N(C)C)cc3)CC2c2ccc(C)c(C)c2)cc1 (centres unmarked) ?
Marked response: 5.25

Exam item: For COCCN(CCOC)C(=O)CS(=O)(=O)NN1CC(c2ccc(C3CC3)cc2)N(CCc2ccc(OC)cc2)C1=O (centres unmarked) then?
Marked response: 5.13

Exam item: Cool, now COc1ccc(CCCN2C(=O)N(NS(C)(=O)=O)CC2c2ccc(C3CC3)cc2)cc1 (centres unmarked)
Marked response: 5.44

Exam item: Try this molecule too: COc1ccc(CCN2C(=O)N(NS(C)(=O)=O)CC2c2ccc(OC(F)F)cc2)cc1 (centres unmarked)
Marked response: 5.39

Exam item: For COc1ccc(CCN2C(=O)N(NS(N)(=O)=O)CC2c2ccc(C(C)(C)C)cc2)cc1 (centres unmarked) then?
Marked response: 5.14

Exam item: Same lookup for COc1ccc(CCCN2C(=O)N(NS(C)(=O)=O)CC2c2ccc(OC)cc2)cc1 (centres unmarked) , please.
Marked response: 4.94

Exam item: Next up: COc1ccc(CCN2C(=O)N(NS(C)(=O)=O)C[C@@H]2c2ccc(OC(F)F)cc2)cc1
Marked response: 5.24

Exam item: Can you check COc1ccc(CCN2C(=O)N(NS(=O)(=O)CC(=O)NCC3CC3)CC2c2ccc(OC)cc2)cc1 (centres unmarked) next?
Marked response: 4.91

Exam item: // next record COc1ccc(CCN2C(=O)N(NS(C)(=O)=O)CC2c2ccc(C(C)(C)C)cc2)cc1 (centres unmarked)
Marked response: 5.19
